Origin of values: patent US9890111B2

Target: penicillin-binding protein 1b from E. coli (transglycosylase) (Escherichia coli)
Construct: PBP1b[58-804] was amplified from E. coli genomic DNA and cloned into the expression vector pET15b; His6 (N, cleaved yes); made in house; host or cells: E. coli BL21(DE3)
Sequence (P02919 58-804): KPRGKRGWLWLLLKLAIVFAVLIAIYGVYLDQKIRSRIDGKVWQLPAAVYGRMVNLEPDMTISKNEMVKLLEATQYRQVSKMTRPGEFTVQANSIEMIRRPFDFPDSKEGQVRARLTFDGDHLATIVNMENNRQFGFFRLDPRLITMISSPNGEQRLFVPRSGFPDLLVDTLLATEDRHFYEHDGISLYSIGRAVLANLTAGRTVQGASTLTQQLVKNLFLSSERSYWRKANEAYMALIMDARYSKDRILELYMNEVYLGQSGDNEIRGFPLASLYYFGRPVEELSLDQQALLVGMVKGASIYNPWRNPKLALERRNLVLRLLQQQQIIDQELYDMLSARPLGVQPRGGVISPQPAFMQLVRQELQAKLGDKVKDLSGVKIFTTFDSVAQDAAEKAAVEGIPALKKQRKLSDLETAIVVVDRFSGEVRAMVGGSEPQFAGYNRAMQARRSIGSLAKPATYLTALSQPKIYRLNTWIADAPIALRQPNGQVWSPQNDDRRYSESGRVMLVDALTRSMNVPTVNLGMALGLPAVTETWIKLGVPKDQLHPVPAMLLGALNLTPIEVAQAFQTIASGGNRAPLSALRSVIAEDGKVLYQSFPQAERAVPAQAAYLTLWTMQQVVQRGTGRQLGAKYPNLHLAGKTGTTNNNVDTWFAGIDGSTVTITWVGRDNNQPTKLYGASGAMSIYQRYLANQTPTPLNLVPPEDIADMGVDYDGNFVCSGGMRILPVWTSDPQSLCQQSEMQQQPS
Assay: Lipid II polymerization / transglycosylase (TG) activity assay
Type: biochemical
Details: read-out: TG Activity at various concentration of cmpd: 100 μM
MEASURED_PARAMETER: remaining activity at 100 µM (%)
Your answer is read as %, so omit the unit and give the number.

Known remaining activity at 100 µM results, listed for orientation:
| STRUCTURE_SMILES_STRING | EXPERIMENTAL_SYSTEM | RECORDED_VALUE |
| --- | --- | --- |
| Cc1ccc(NC(=O)c2ccc(O)c(O)c2O)cc1Cl | penicillin-binding protein 1b from E. coli (transglycosylase) (Escherichia coli) | 0 |
| Cc1ccc(NC(=O)c2ccccc2O)cc1Cl | penicillin-binding protein 1b from E. coli (transglycosylase) (Escherichia coli) | 100 |

Now take the following compound into account.
Ask | Determine reported remaining activity at 100 µM for O=C(Nc1cc(Cl)c(Cl)c(Cl)c1)c1cc(Cl)cc(Cl)c1O ; test system: penicillin-binding protein 1b from E. coli (transglycosylase) (Escherichia coli).
Reply | 100
